experiment: cells
The source made the active and inactive calls. How the calls were made is not given here.
Entries annotated with measured IC50
outcome measure: IC50

COc1ccc(C(=O)N2CC(c3ccc(Cl)cc3)CC2=O)cc1 (centres undefined)    31.5 µM (active)
CC(=N)/C(C#N)=C(/O)CSc1ncnc2ccccc12    17.9 µM (active)
CCCC(=O)Nc1ccc(-c2nc3cc(C)c(C)cc3o2)cc1    48.2 µM (active)
C=C(C)C(=O)Nc1cccc(C2=NOC3(C2)C[C@@H](C(N)=O)N(C(=O)c2ccc(OC)cc2)C3)c1 (some centres undefined)    38.9 µM (active)

---

molecular target: Voltage-dependent T-type calcium channel subunit alpha-1H (Homo sapiens); assay type: functional;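 further: channel activity triggered by adding a high calcium stimulation buffer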
Sequence (O95180 whole entry): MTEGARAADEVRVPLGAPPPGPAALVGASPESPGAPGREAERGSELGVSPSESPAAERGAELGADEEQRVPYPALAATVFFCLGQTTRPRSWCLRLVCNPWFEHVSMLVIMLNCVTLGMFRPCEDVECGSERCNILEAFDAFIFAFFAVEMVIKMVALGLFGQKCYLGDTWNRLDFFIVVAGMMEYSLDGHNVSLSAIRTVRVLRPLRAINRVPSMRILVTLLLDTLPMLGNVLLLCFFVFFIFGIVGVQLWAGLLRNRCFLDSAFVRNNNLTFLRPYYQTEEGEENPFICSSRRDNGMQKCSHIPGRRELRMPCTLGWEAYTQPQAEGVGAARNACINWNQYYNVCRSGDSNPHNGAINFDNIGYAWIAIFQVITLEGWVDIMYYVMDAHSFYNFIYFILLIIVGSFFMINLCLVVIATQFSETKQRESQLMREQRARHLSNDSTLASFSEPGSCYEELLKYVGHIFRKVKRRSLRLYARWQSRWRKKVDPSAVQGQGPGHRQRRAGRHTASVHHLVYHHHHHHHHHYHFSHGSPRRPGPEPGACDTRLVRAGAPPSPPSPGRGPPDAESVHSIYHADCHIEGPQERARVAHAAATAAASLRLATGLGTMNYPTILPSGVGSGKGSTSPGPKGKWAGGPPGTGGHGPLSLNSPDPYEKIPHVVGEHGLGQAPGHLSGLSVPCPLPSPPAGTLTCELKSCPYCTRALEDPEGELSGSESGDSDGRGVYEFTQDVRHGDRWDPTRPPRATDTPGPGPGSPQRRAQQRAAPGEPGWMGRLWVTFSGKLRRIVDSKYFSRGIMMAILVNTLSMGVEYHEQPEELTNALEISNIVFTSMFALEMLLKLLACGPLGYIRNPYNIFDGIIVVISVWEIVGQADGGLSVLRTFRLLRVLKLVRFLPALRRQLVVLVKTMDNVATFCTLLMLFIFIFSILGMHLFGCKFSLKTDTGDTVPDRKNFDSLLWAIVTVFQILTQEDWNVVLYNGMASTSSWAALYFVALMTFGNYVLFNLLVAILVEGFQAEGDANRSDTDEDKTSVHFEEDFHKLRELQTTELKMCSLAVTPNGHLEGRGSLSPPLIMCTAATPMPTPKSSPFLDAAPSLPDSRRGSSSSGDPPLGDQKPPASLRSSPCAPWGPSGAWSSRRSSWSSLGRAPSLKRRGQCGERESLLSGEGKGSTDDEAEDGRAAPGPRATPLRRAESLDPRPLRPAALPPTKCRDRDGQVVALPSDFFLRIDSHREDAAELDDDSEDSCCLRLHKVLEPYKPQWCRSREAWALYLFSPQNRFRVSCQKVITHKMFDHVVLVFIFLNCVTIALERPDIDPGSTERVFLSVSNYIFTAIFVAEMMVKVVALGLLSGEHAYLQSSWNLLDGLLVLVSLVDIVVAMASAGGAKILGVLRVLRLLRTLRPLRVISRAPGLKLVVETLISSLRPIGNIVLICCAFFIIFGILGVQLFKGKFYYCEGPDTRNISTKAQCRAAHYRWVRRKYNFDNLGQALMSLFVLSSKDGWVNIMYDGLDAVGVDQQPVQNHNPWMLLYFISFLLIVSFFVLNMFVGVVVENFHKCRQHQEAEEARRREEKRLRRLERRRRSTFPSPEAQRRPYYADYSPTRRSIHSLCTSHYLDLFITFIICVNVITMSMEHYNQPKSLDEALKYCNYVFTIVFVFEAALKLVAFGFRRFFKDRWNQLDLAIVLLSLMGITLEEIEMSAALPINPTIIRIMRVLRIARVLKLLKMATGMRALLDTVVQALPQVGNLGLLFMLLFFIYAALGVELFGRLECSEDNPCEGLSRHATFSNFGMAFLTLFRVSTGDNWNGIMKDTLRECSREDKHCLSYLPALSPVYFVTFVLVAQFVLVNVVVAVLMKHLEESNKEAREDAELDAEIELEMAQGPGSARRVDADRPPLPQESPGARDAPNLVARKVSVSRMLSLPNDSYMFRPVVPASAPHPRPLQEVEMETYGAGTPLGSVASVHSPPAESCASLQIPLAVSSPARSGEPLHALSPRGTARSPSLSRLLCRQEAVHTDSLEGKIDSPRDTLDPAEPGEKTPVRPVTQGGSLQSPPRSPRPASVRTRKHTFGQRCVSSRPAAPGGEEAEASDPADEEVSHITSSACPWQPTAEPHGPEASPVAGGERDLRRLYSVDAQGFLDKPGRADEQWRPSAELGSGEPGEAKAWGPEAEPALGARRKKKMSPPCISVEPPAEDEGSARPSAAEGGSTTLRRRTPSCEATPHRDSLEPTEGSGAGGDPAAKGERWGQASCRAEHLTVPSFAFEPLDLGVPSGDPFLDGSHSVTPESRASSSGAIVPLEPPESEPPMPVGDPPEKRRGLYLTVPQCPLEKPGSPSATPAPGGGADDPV
The source made the active and inactive calls.
Entries annotated with measured EC50
outcome measure: EC50

O=C(CSCC(=O)N1CCCCC1)Nc1nc(-c2cccs2)cs1    0.595 µM (active)
Cc1ccccc1-c1nc(CS(=O)(=O)CC(=O)N(C)C2CCCCC2)c(C)o1    1.26 µM (active)
Cc1ccc2c(CC(=O)NCC3COc4ccccc4O3)coc2c1 (stereo not given)    0.986 µM (active)
Cc1nonc1NC(=O)CSc1nnc(-c2ccoc2C)n1-c1cccc(Cl)c1    7.83 µM (active)
O=C(CCS(=O)(=O)c1ccc(Br)cc1)N1CCN(c2ccccc2Cl)CC1    4.8 µM (active)
